The reported measurements were obtained from PubChem BioAssay AID248.

tested on: L1210 leukemia ip in BDF1 mice, survival T/C; experiment: NCI In Vivo Anticancer Drug Screen. Data for tumor model L1210 Leukemia (intraperitoneal) in B6D2F1 (BDF1) mice; conditions: endpoint: mean survival time; dose: 400.0 mg/kg/injection; schedule: Q01DX009 (ip); vehicle: saline; higher = longer survival
Toxic doses and inconclusive results are not listed.
Measured T/C of individual entries

// worked examples, T/C included
Query: Please indicate recorded T/C of O=C1c2cccc3cccc(c23)C1(c1ccccc1)c1ccccc1 measured with L1210 leukemia ip in BDF1 mice, survival T/C.
Response: 111 % of control

Query: Give T/C for O=C1/C(=C\c2ccccc2)OC(c2ccccc2)O/C1=C/c1ccccc1 (stereo not drawn) tested on L1210 leukemia ip in BDF1 mice, survival T/C.
Response: 88 % of control

---
Query: Provide T/C, recorded with L1210 leukemia ip in BDF1 mice, survival T/C, of O=S(=O)(O)C1(O)CCCCC1
Response: 113 % of control

---

Below, each entry is listed alongside its reported T/C.
test system: L1210 leukemia ip in BDF1 mice, survival T/C; assay: NCI In Vivo Anticancer Drug Screen. Data for tumor model L1210 Leukemia (intraperitoneal) in B6D2F1 (BDF1) mice; details: endpoint: mean survival time; dose: 100.0 mg/kg/injection; schedule: Q01DX009 (ip); vehicle: saline; higher = longer survival
Inconclusive results and toxic doses are left out.

Illustrative cases are given below, each with its answer.
Query: Look up and report T/C, with L1210 leukemia ip in BDF1 mice, survival T/C as system, for S=C(NCc1ccccc1)Nc1ncn[nH]1
Response: 90 % of control

Query: Please respond with reported T/C (system L1210 leukemia ip in BDF1 mice, survival T/C) for O=C(/C=C/c1ccc2c(c1)OCO2)/C=C/c1ccc2c(c1)OCO2 .
Response: 91 % of control

Query: GET T/C | system: L1210 leukemia ip in BDF1 mice, survival T/C | item: CN(C)NC(=O)CC(N)C(=O)O (centres undefined)
Response: 97 % of control

Query: Under L1210 leukemia ip in BDF1 mice, survival T/C: report T/C of O=C1OC(=O)c2c3c(c4c(c21)CCC4)CCC3 .
Response: 93 % of control

Query: Consider the compound CC(C)NCC(=O)c1ccc(O)c(O)c1 tested on L1210 leukemia ip in BDF1 mice, survival T/C; state its T/C.
Response: 104 % of control

New cases:
Query: Give T/C for Cc1c[nH]c(=O)cn1 tested on L1210 leukemia ip in BDF1 mice, survival T/C.
Response: 97 % of control

Query: Look up L1210 leukemia ip in BDF1 mice, survival T/C data: T/C of O=C(NCCO)Nc1ccccc1F , then report it.
Response: 95 % of control

Query: // fetch T/C; item: CC(=O)CCCc1ccccc1 ; system: L1210 leukemia ip in BDF1 mice, survival T/C
Response: 92 % of control

Query: Report value: T/C, system: L1210 leukemia ip in BDF1 mice, survival T/C, compound: CCC(=O)OCCOc1ccc(C(C)(C)C)cc1
Response: 98 % of control

Query: Identify measured T/C obtained with L1210 leukemia ip in BDF1 mice, survival T/C for OCCOCC#CCOCCO .
Response: 102 % of control

Query: # return T/C of CCOC(=O)NNC(=O)Nc1ccc(Cl)c([N+](=O)[O-])c1 (system: L1210 leukemia ip in BDF1 mice, survival T/C)
Response: 104 % of control

Query: Output reported T/C of the compound O=C1/C(=N/O)CCc2ccccc21 on L1210 leukemia ip in BDF1 mice, survival T/C.
Response: 103 % of control

Query: Send back L1210 leukemia ip in BDF1 mice, survival T/C T/C of O=C(O)CSC(CC(=O)O)C(F)(F)C(F)(F)C(F)(F)F (centres undefined) only.
Response: 100 % of control

Query: Recall the reported T/C of CCNCC#CCNCC when tested on L1210 leukemia ip in BDF1 mice, survival T/C.
Response: 96 % of control

---

System: L1210 leukemia ip in BDF1 mice, survival T/C
Test: NCI In Vivo Anticancer Drug Screen. Data for tumor model L1210 Leukemia (intraperitoneal) in B6D2F1 (BDF1) mice
Settings: endpoint: mean survival time; dose: 100.0 mg/kg/injection; schedule: Q01DX001 (ip); vehicle: saline; higher = longer survival
Method: The antitumor activity of compounds was measured in mice bearing transplantable tumors. Survival or tumor size were measured and the results are expressed as the measurement made in the treated group (T) divided by the measurement made in the vehicle treated control group (C). The tumor model used in this assay is L1210 Leukemia (intraperitoneal) in B6D2F1 (BDF1) mice
Inconclusive results and toxic doses are left out.
Measurement Label: T/C

Example molecules with recorded T/C:
Query: Identify measured T/C corresponding to [N-]=[N+]=NC1=NN2NNN=C2C(N)=C1
Response: 105 % of control

Query: Name the recorded T/C of the molecule listed here: Oc1ccc(-c2nc3ccccc3nc2-c2ccc(O)cc2O)c(O)c1
Response: 96 % of control

Query: Tell us which T/C value is on record for Brc1ccc(S/C=C/c2ccccc2)cc1
Response: 112 % of control

Please turn your attention to the following entry.
Query: Note T/C for the molecule shown: CCOC(=O)C[N+]1(C)C2CCC1CC(O)C2 (centres undefined)
Response: 94 % of control

---

tested on: L1210 leukemia ip in BDF1 mice, survival T/C; assay: NCI In Vivo Anticancer Drug Screen. Data for tumor model L1210 Leukemia (intraperitoneal) in B6D2F1 (BDF1) mice; details: endpoint: mean survival time; dose: 100.0 mg/kg/injection; schedule: Q01DX001 (ip); vehicle: other; higher = longer survival
Toxic doses and inconclusive results are not listed.
# T/C per entry

Worked cases, T/C given:
Query: Quickly give me recorded T/C for O=C(O)C(Cc1ccc(O)cc1)N(S(=O)(=O)Cc1ccccc1)S(=O)(=O)Cc1ccccc1 (centres undefined)
Response: 88 % of control

Query: Give reported T/C value for Cc1cc(NC(=O)c2ccc(C(=O)Nc3cc(C)nc4ccccc34)cc2)c2ccccc2n1
Response: 102 % of control

Query: Indicate its recorded T/C; the compound in question is O=C1c2ccccc2-c2c(N=Cc3ccc4c(c3)OCO4)c(Br)cc(Br)c21
Response: 93 % of control

Turning to the following compound.
Query: Give reported T/C value for CC(CCN=Cc1ccccc1O)N=Cc1ccccc1O (centres undefined)
Response: 89 % of control

---

tested on: L1210 leukemia ip in BDF1 mice, survival T/C; test: NCI In Vivo Anticancer Drug Screen. Data for tumor model L1210 Leukemia (intraperitoneal) in B6D2F1 (BDF1) mice; conditions: endpoint: mean survival time; dose: 400.0 mg/kg/injection; schedule: Q01DX009 (ip); vehicle: Klucel (hydroxypropylcellulose) (HPC); higher = longer survival
Toxic doses and inconclusive results are not listed.
Reported values of T/C for individual entries

Query: Provide T/C value for the following compound: CC1(c2ccco2)NC(=O)NC1=O (stereo not given)
Response: 105 % of control

Query: State, in one line, measured T/C of COc1cc2ccc(Cc3nccc4cc(OC)c(OC)cc34)cc2cc1OC
Response: 101 % of control

Query: Identify the reported T/C for the following entry. Clc1ccc(C=Nc2cccc3ccccc23)c(Cl)c1
Response: 93 % of control

Query: Give me measured T/C, please, for this compound: Cc1cccc(NC(=O)c2ccc(Cl)cc2Cl)c1C
Response: 91 % of control

More entries:
Query: Specify reported T/C for the compound shown: O=C(Cl)c1ccccc1S(=O)(=O)N(CCOc1ccccc1)c1ccccc1
Response: 97 % of control

---

System: L1210 leukemia ip in BDF1 mice, survival T/C
Assay: NCI In Vivo Anticancer Drug Screen. Data for tumor model L1210 Leukemia (intraperitoneal) in B6D2F1 (BDF1) mice
Conditions: endpoint: mean survival time; dose: 400.0 mg/kg/injection; schedule: Q01DX001 (ip); vehicle: carboxymethylcellulose (CMC); higher = longer survival
Protocol: The antitumor activity of compounds was measured in mice bearing transplantable tumors. Survival or tumor size were measured and the results are expressed as the measurement made in the treated group (T) divided by the measurement made in the vehicle treated control group (C). The tumor model used in this assay is L1210 Leukemia (intraperitoneal) in B6D2F1 (BDF1) mice
Inconclusive results and toxic doses are left out.
Recorded measurements of T/C, one per entry

Query: Identify T/C associated with the molecule CN(C)CCSC(CO)c1ccccc1 (stereo not given)
Response: 94 % of control

Query: Assign T/C to the following record: CCOC(=O)c1ccc(N(CCC(=O)COC(C)=O)C(C)=O)cc1
Response: 102 % of control

New cases:
Query: Assign T/C to the following record: CCNC(=O)Nc1ccc(C)cc1
Response: 103 % of control

Query: Provide T/C value for the following molecule: O=[N+]([O-])c1ccc(CSCc2ccccc2)cc1
Response: 98 % of control

Query: Hello, please tell me recorded T/C for this one: Cc1nnc(NS(=O)(=O)c2ccc(N=Nc3cc(N=Nc4ccccc4)c(N)nc3N)cc2)s1
Response: 97 % of control
